# ASSAY_DETAILS: A quantitative high throughput screen for small molecules that induce DNA re-replication in MCF 10a normal breast cells. Note: nearly all actives have a fitted effect of over 50% in size.
# MEASUREMENT_PARAMETERS: MCF 10A DNA re-replication, Hoechst nuclear intensity, 48 h; series mostly up to 46.1 µM
In all, about 350,000 compounds went through this assay and about 9,900 (2.8%) were called active. Not shown: some 15% with an inconclusive outcome. Calls come from the whole dose curve; as a rule, active = well fitted activation curve with a large enough effect; inconclusive = small, poorly fitted or top-dose-only effect; inactive = no such curve, though single readings can be large or run the other way. The full list was thinned out, with actives kept by preference.
Pick from active, inactive when you respond.

- COMPOUND: "O=C1CC2(CCCC2)C(=O)N1CN1CCN(S(=O)(=O)c2ccc(F)cc2F)CC1"
  LABEL: "inactive"

Call for entry Cc1ccc(C)c(S(=O)(=O)N2CCN(c3ncnc4sccc34)CC2)c1 :
active

----------
# ASSAY_DETAILS: A quantitative high throughput screen for small molecules that induce DNA re-replication in MCF 10a normal breast cells. Note: nearly all actives have a fitted effect of over 50% in size. Note: potency is the fitted concentration of half-maximal effect.
# MEASUREMENT_PARAMETERS: MCF 10A DNA re-replication, Hoechst nuclear intensity, 48 h; series mostly up to 46.1 µM
Screen size: about 350,000 compounds; about 9,900 (2.8%) were called active. Roughly 15% stayed inconclusive and do not appear here. The list comes from a sample in which actives are over-represented; it also holds close analogues and randomly drawn compounds.
ASSAY_READOUT: Potency

Consider the worked cases shown below.
- SMILES_RECORD: "COc1ccc(CNC(=O)COC(=O)c2c(C)nn(-c3ccccc3)c2C)cc1OC"
  Potency: "inactive"
- SMILES_RECORD: "COc1ccc(CNC(=O)COC(=O)c2sccc2C)cc1OC"
  Potency: "inactive"
- SMILES_RECORD: "COc1ccc(CNC(=O)Cc2ccc(-c3ccccc3)cc2)cc1OC"
  Potency: "11.6 µM (active)"
- SMILES_RECORD: "COc1ccc(CNC(=O)COc2ccccc2C(=O)c2cnn(-c3ccccc3)c2)cc1OC"
  Potency: "13 µM (active)"

Please examine the following record next.
Look up Potency for this compound: Cc1ccc2nc(-c3ccncc3)cc(C(=O)Nc3ccc(OC(F)F)cc3)c2c1
14.6 µM (active)

----------
# ASSAY_DETAILS: A quantitative high throughput screen for small molecules that induce DNA re-replication in MCF 10a normal breast cells. Note: nearly all actives have a fitted effect of over 50% in size. Note: potency is the fitted concentration of half-maximal effect.
# MEASUREMENT_PARAMETERS: MCF 10A DNA re-replication, Hoechst nuclear intensity, 48 h; series mostly up to 46.1 µM
# Excerpt: H Molecular Libraries Probe Production Network [MLPCN] NIH Chemical Genomics Center [NCGC] Assay Provider: Melvin DePamphilis, NICHD, NIH Eukaryotic cells normally restrict genome duplication to once per cell division. […] To identify compounds that induce re-replication in normal cells, an image-based assay was used to measure DNA content of nuclei, as detected by the fluorescent DNA binding dye, Hoechst. […]
Hit rate of the full screen: of about 350,000 compounds, about 9,900 (2.8%) were called active. Another 15% or so got no clear call; they are omitted. The full list was thinned out, with actives kept by preference.
ASSAY_READOUT: Potency

- COMPOUND: "O=C1/C(=C/c2ccc3c(c2)OCO3)CCC/C1=C\\c1ccc2c(c1)OCO2"
  EXPERIMENTAL_VALUE: "14.6 µM (active)"
- COMPOUND: "CC(NCC(=O)Nc1ccccc1C(=O)NC1CC1)c1ccccc1Cl (stereo not given)"
  EXPERIMENTAL_VALUE: "inactive"
- COMPOUND: "COc1ccc(C)cc1Nc1nc(-c2c(C)[nH]c3ccccc23)cs1"
  EXPERIMENTAL_VALUE: "18.4 µM (active)"
- COMPOUND: "COc1ccc(NC(=O)CN(C)C(=O)c2cc(C3CC3)nn2-c2ccccc2)cc1"
  EXPERIMENTAL_VALUE: "inactive"
- COMPOUND: "COc1ccc(CCNC(=O)COC(=O)c2ncc(Cl)c(Cl)c2Cl)cc1OC"
  EXPERIMENTAL_VALUE: "inactive"
- COMPOUND: "CCN(C[C@H]1N[C@@](CC)(C(=O)OC)[C@H]2C(=O)N(C)C(=O)[C@@H]12)C(=O)Nc1ccc(F)cc1"
  EXPERIMENTAL_VALUE: "inactive"

Look up Potency for this compound: COc1ccc(Br)cc1C(=O)NC(=S)Nc1cc(-c2nc3ccccc3[nH]2)ccc1C
inactive

Look up Potency for this compound: CCCCCCC(=O)Nc1nc(C)c(-c2csc(Nc3cc(Cl)ccc3OC)n2)s1
inactive

Look up Potency for this compound: COc1ccccc1NC(=O)COC(=O)COc1ccccc1F
inactive

Look up Potency for this compound: COc1cc(OC)cc(C(=O)NCC(=O)OCC(=O)NC(C)CCc2ccccc2)c1 (stereo not given)
inactive

Look up Potency for this compound: CCc1sc(C(=O)N2CCN(CC(=O)Nc3cccc(F)c3)CC2)cc1C
inactive

Look up Potency for this compound: COC(=O)c1cnc(Nc2cc(C)ccc2OC)c2ccccc12
inactive
